Test system: Aβ1-40
Experiment: Aβ1-40 content in conditioned medium of primary cortico-hippocampal neuron cultures from Tg2576 mice (ELISA; primary and secondary dose-response screening)
Assay type: cell-based, mouse
Settings: Mus musculus, Neuron, 24 h, primary screening, drug 100 μM, Tg2576 neuron cultures; table sorted by Aβ1-42; read-out: Ab1-40 (% of ctl)
Method: Potential Aβ-lowering activity was assessed for 150 commercially available cardiovascular drugs using primary cortico-hippocampal neuron cultures derived from embryonic Tg2576 (El 6). […] All cardiovascular reagents were obtained from MicroSource Discovery Systems Inc (Gaylordsville, Conn.). […] The influence of drug treatments in Aβ content in the conditioned medium in treated cultures was assessed by assessing steady state levels of Aβ1-40 and Aβ1-42 in the culture media 24 hours after treatment. […]
Counter-ions that a name gives are not always drawn.
# cutoff 80% applies to activity at 100 µM; >= gives rule met, < gives rule not met

Incoming: Could you verify whether the entry CC(C)(Sc1cc(C(C)(C)C)c(O)c(C(C)(C)C)c1)Sc1cc(C(C)(C)C)c(O)c(C(C)(C)C)c1 shows activity at 100 µM of no less than 80%?
Outgoing: rule not met

Incoming: Could you verify whether the entry CC(C)(C)NCC(O)COc1cccc2c1CC(O)C(O)C2 (stereo not drawn) shows activity at 100 µM of no less than 80%?
Outgoing: rule met

Incoming: Could you verify whether the entry CCOC(=O)C1=C(COCCN)NC(C)=C(C(=O)OC)C1c1ccccc1Cl (stereo not drawn) [Amlodipine Besylate] shows activity at 100 µM of no less than 80%?
Outgoing: rule not met

Incoming: Could you verify whether the entry COC(=O)C1=C(C)NC(C)=C(C(=O)OC)C1c1ccccc1[N+](=O)[O-] shows activity at 100 µM of no less than 80%?
Outgoing: rule not met

Incoming: Could you verify whether the entry CC1=NS(=O)(=O)c2cc(Cl)ccc2N1 [Diazoxide] shows activity at 100 µM of no less than 80%?
Outgoing: rule met

Incoming: Could you verify whether the entry C[C@]12CCC(=O)C=C1C=C[C@@H]1[C@@H]2CC[C@@]2(C)[C@H]1CC[C@@]2(O)CCC(=O)O [Canrenoic Acid, Potassium Salt] shows activity at 100 µM of no less than 80%?
Outgoing: rule met

Incoming: Could you verify whether the entry CCCC(=O)Nc1ccc(OCC(O)CNC(C)C)c(C(C)=O)c1 (stereo not drawn) [Acebutolol Hydrochloride] shows activity at 100 µM of no less than 80%?
Outgoing: rule met

Incoming: Could you verify whether the entry CCOC(=O)[N-]c1cn(N2CCOCC2)n[o+]1 shows activity at 100 µM of no less than 80%?
Outgoing: rule met

Incoming: Could you verify whether the entry O=c1oc2c(O)c(O)cc3c(=O)oc4c(O)c(O)cc1c4c23 shows activity at 100 µM of no less than 80%?
Outgoing: rule met

----------
For each entry below, report its MTT (% of ctl) value.
System: primary cortico-hippocampal neuron cultures
Assay: MTT in primary screening
Conditions: primary screening; table sorted by Aβ1-42
Counter-ions that a name gives are not always drawn.

Incoming: Under primary cortico-hippocampal neuron cultures: MTT (% of ctl) value of CC(NCCC(c1ccccc1)c1ccccc1)c1ccccc1 (centres unmarked) [Fendiline Hydrochloride] ?
Outgoing: 7.7 % of ctl

Incoming: Under primary cortico-hippocampal neuron cultures: MTT (% of ctl) value of CC(CCc1ccc(O)cc1)NCCc1ccc(O)c(O)c1 (centres unmarked) [Dobutamine Hydrochloride] ?
Outgoing: 99.5 % of ctl

Incoming: Under primary cortico-hippocampal neuron cultures: MTT (% of ctl) value of CC[C@H]1CN2CC[C@H]1C[C@@H]2[C@@H](O)c1ccnc2ccc(OC)cc12 [Hydroquinidine] ?
Outgoing: 103.6 % of ctl

Incoming: Under primary cortico-hippocampal neuron cultures: MTT (% of ctl) value of C=CCc1ccccc1OCC(O)CNC(C)C (centres unmarked) [Alprenolol] ?
Outgoing: 92.2 % of ctl

Incoming: Under primary cortico-hippocampal neuron cultures: MTT (% of ctl) value of CCOC(=O)[C@H](CCc1ccccc1)N[C@@H](C)C(=O)N1[C@H](C(=O)O)C[C@@H]2CCC[C@@H]21 [Ramipril] ?
Outgoing: 102.9 % of ctl

Incoming: Under primary cortico-hippocampal neuron cultures: MTT (% of ctl) value of Fc1ccc(C(c2ccc(F)cc2)N2CCN(C/C=C/c3ccccc3)CC2)cc1 [Flunarizine Hydrochloride] ?
Outgoing: 59.4 % of ctl

Incoming: Under primary cortico-hippocampal neuron cultures: MTT (% of ctl) value of O=c1oc2c(O)c(O)cc3c(=O)oc4c(O)c(O)cc1c4c23 [Ellagic Acid] ?
Outgoing: 85.2 % of ctl

Incoming: Under primary cortico-hippocampal neuron cultures: MTT (% of ctl) value of CC[C@H]1[C@@H]2C[C@H]3[C@@H]4N(C)c5ccccc5[C@]45C[C@@H]([C@H]2[C@H]5O)N3[C@@H]1O [Ajmaline] ?
Outgoing: 90.3 % of ctl
